Give measured koff for each item. Keep answers brief.
# target: SARS-CoV-2 Spike protein (SARS-CoV-2, UniProt P0DTC2 14-1208)
# protocolNotes: HT-SPR (Carterra LSA), mAb coupled to chip, Spike in solution, 1:1 Langmuir fit

Example cases with answers are listed next.
mAb 1495 (antibody, V domains shown, human IgG1) VH: QVQLVESGGGVVQPGRSLRLSCTASGFTFSSYAMHWVRQAPGKGLEWVAVISYDGNNKYYGDSVKGRFTISRDNSKNTLYLQMNSLRAEDTAVYYCAKGADTPHYSGYHFLSVGYYFYGMDVWGQGTTVTVSS VL: DIQMTQSPSSLSASVGDRVTITCRASQSISYYLNWYQQKPGKAPQLLIYAASSLQSGVPSRFSGSRSGTDFTLTISSLQPEDFATYYCQQSYSTPFTFGPGTKVDIKR    1.01e-05 s⁻¹
mAb 1538 (antibody, V domains shown, human IgG1) VH: EVQLLESGGGLVQPGGSLRLSCAASGFTFSSYAMSWVRQAPGKGLEWVSGISDSGGSTYYADYVKGRFTISRDNSKDTLYLQMNSLRAEDTAVYYCAKDRGNEYALTHYYYYAMDVWGQGTTVTVSS VL: DIQMTQSPSSLSASVGDRVTITCRASQSISSYLNWYQQKPGKAPKLLIYAAYSLQSGVPSRFSGGGSGTDFTLTISSLQPEDFATYFCQQSYSTPITFGQGTRLEIKR    ≤ 1e-05 s⁻¹

koff reported for this binder mAb 1444 (antibody, V domains shown, human IgG1) VH: QVQLVQSGAEVKKPGASVKVSCKASGYTFTAYYMHWVRQAPGQGLEWMGWINPNSDDTNYAQKFQGRVTMTRDTSISTAYMELSRLRSDDTAVYYCAREEGVFTIGDRYFDLWGRGTLVSVSS VL: QTVVTQEPSFSVSPGGTVTLTCGLSSGSVSTSYYPSWYQQTPGQAPRTLIYNTNTRSSGVPDRFSGSILGNKAALTITGAQADDESDYYCVLYMGSGIWVFGGGTKLTVLG : ≤ 1e-05 s⁻¹
